The origin of these recorded values is PubChem BioAssay AID1963972.

compounds and their reported viability, T/C
Tested on: 945468-187-T-J2-PDC spheroids viability
Assay: Anticancer human tumor 945468-187-T-J2-PDC patient-derived rectal carcinoma cell line growth inhibition [PI3K]
Conditions: second compound 0.0316 µM; first compound 0.0316 µM; stronger effect = lower value; spheroids with HUVEC and MSC
Expressed in %, but write only the number.

COMPOUND	UNITS_SYMBOL	viability, T/C
CCCS(=O)(=O)Nc1ccc(F)c(C(=O)c2c[nH]c3ncc(-c4ccc(Cl)cc4)cc23)c1F + CC(Nc1ncnc2nc[nH]c12)c1cc2cccc(Cl)c2c(=O)n1-c1ccccc1	%	105

Ask | # lookup: viability, T/C of Cn1ncc(Cl)c1-c1cc(C(=O)NC(CN)Cc2cccc(F)c2)sc1Cl (stereo unspecified) + CC(Nc1ncnc2nc[nH]c12)c1cc2cccc(Cl)c2c(=O)n1-c1ccccc1
Reply | 97.5

Ask | What do you get for CC1(C)CCC(CN2CCN(c3ccc(C(=O)NS(=O)(=O)c4ccc(NCC5CCOCC5)c([N+](=O)[O-])c4)c(Oc4cnc5[nH]ccc5c4)c3)CC2)=C(c2ccc(Cl)cc2)C1 + CC(Nc1ncnc2nc[nH]c12)c1cc2cccc(Cl)c2c(=O)n1-c1ccccc1 ?
Reply | 91.7

Ask | What about this compound? CC(Cn1ccc(-c2ccc(C#N)c(Cl)c2)n1)NC(=O)c1cc(C(C)O)[nH]n1 (stereo unspecified) + Cc1nc(NC(=O)N2CCCC2C(N)=O)sc1-c1ccnc(C(C)(C)C(F)(F)F)c1
Reply | 118

---

Test system: 945468-187-T-J2-PDC spheroids viability
Test: Anticancer human tumor 945468-187-T-J2-PDC cell line growth inhibition [PI3K];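 further: spheroids exposed to compounds for seven days before reading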
Conditions: curve of first compound; second compound 0.01 µM; spheroids with HUVEC and MSC
Description: Combinatorial screen of targeted agents with the PI3K inhibitors inavolisib, alpelisib, duvelisib, and copanlisib in multi-cell type tumor spheroids A high-throughput screen of multi-cell type tumor spheroids was designed to identify active combinations of targeted small molecules and PI3K pathway inhibitors. […] Compounds. […] If the clinical Cmax for an agent had not been determined, the highest concentration tested was 10 microM. […]
Property: IC50; scope: individual molecules

// worked examples, IC50 included
MOLECULE	IC50
Cn1nccc1Nc1nccc(-c2ccn(C(CO)c3ccc(Cl)c(F)c3)c(=O)c2)n1 (stereo not drawn) + CC(Nc1ccc2c(c1)OCCn1cc(N3C(=O)OCC3C(F)F)nc1-2)C(N)=O	> 10 µM
C[C@@H](NC(=O)c1ncnc(N)c1Cl)c1ncc(C(=O)Nc2cc(C(F)(F)F)c(Cl)cn2)s1 + CC(Nc1ccc2c(c1)OCCn1cc(N3C(=O)OCC3C(F)F)nc1-2)C(N)=O	> 10 µM

Ask | What value of measured IC50 is listed for Cn1cnc2c(F)c(Nc3ccc(Br)cc3Cl)c(C(=O)NOCCO)cc21 + COc1c(OCCCN2CCOCC2)ccc2c3n(c(=NC(=O)c4cnc(N)nc4)nc12)CCN3 ?
Reply | > 3 µM

---

Test system: 945468-187-T-J2-PDC spheroids viability
Assay: Anticancer human tumor 945468-187-T-J2-PDC cell line growth inhibition [PI3K];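 further: spheroids exposed to compounds for seven days before reading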
Settings: curve of first compound; second compound 0.01 µM; spheroids with HUVEC and MSC
OUTCOME_MEASURE: IC50

For orientation, consider the following solved cases.
COMPOUND	IC50
C=CC(=O)N1CCN(c2nc(=O)n(-c3c(C)ccnc3C(C)C)c3nc(-c4c(O)cccc4F)c(F)cc23)C(C)C1 (stereo not given) + COc1c(OCCCN2CCOCC2)ccc2c3n(c(=NC(=O)c4cnc(N)nc4)nc12)CCN3	> 10 µM
CNC(=O)c1ccc(N2C(=S)N(c3ccc(C#N)c(C(F)(F)F)c3)C(=O)C2(C)C)cc1F + CC(Nc1ccc2c(c1)OCCn1cc(N3C(=O)OCC3C(F)F)nc1-2)C(N)=O	> 10 µM
CC(=O)c1c(C)c2cnc(Nc3ccc(N4CCNCC4)cn3)nc2n(C2CCCC2)c1=O + COc1c(OCCCN2CCOCC2)ccc2c3n(c(=NC(=O)c4cnc(N)nc4)nc12)CCN3	> 0.1 µM
Cn1ncc(Cl)c1-c1cc(C(=O)NC(CN)Cc2cccc(F)c2)sc1Cl (stereo not given) + CC(Nc1ccc2c(c1)OCCn1cc(N3C(=O)OCC3C(F)F)nc1-2)C(N)=O	> 10 µM

Ask | Query (compound): C=CC(=O)N1CCN(c2nc(=O)n(-c3c(C)ccnc3C(C)C)c3nc(-c4c(O)cccc4F)c(F)cc23)C(C)C1 (stereo not given) + CC(Nc1ccc2c(c1)OCCn1cc(N3C(=O)OCC3C(F)F)nc1-2)C(N)=O ; field requested: IC50
Reply | > 10 µM
